Tested on: PBMCs
ASSAY_SUMMARY: PBMC assay, IL-6 release (HTRF)
Type: cell-based
CONDITION_PARAMETERS: PBMCs from healthy donors, overnight, IL-6 induction by HTRF, average of quadruplicate
Measured EC50 by item

Examples with their reported EC50 follow.
CCCCc1nc2c(N)nc3ccsc3c2n1Cc1nc(CNCCCCCO)cs1: 310 nM
CCCCc1nc2c(N)nc3ccsc3c2n1Cc1ccc(CNCc2ccc(CNC(=O)OC(C)(C)C)cc2)cc1: 110 nM
CCCCc1nc2c(N)nc3ccsc3c2n1Cc1nc(CN2CCN(CCN3CCOCC3)CC2)cs1: > 1000 nM
CCCCc1nc2c(N)nc3ccsc3c2n1Cc1ccccc1CN: > 1000 nM
CCCCc1nc2c(N)nc3ccsc3c2n1CCCCCNCCCCCO: > 1000 nM

Q. Form field: EC50 recorded for CCCCc1nc2c(N)nc3ccsc3c2n1Cc1cccc(Cn2ccnc2)c1 with PBMCs (enter value)
A. > 1000 nM

Q. Form field: EC50 recorded for CCCCc1nc2c(N)nc3ccsc3c2n1Cc1nc(CN2CCNCC2)cs1 with PBMCs (enter value)
A. > 1000 nM

Q. Form field: EC50 recorded for CCCCc1nc2c(N)nc3ccsc3c2n1Cc1ccc(CO)o1 with PBMCs (enter value)
A. > 1000 nM

Q. Form field: EC50 recorded for CCCCc1nc2c(N)nc3ccsc3c2n1Cc1ccccc1CN1CCN(CCN2CCOCC2)CC1 with PBMCs (enter value)
A. > 1000 nM

Q. Form field: EC50 recorded for CCCCc1nc2c(N)nc3ccsc3c2n1Cc1ccccc1CN1CCNCC1 with PBMCs (enter value)
A. > 1000 nM

Q. Form field: EC50 recorded for CCCCc1nc2c(N)nc3ccsc3c2n1Cc1ccccc1CNCC(C)(C)O with PBMCs (enter value)
A. > 1000 nM

Q. Form field: EC50 recorded for CCCCc1nc2c(N)nc3ccsc3c2n1Cc1nc(CN(CC)CC)cs1 with PBMCs (enter value)
A. 630 nM

Q. Form field: EC50 recorded for CCCCc1nc2c(N)nc3ccsc3c2n1Cc1cccc(CN2CCNCC2)c1 with PBMCs (enter value)
A. 750 nM

Q. Form field: EC50 recorded for CCCCc1nc2c(N)nc3ccsc3c2n1CCCCCN=[N+]=[N-] with PBMCs (enter value)
A. > 1000 nM

Q. Form field: EC50 recorded for CCCCc1nc2c(N)nc3ccsc3c2n1Cc1cccc(CNCCCCCO)c1 with PBMCs (enter value)
A. 160 nM

Q. Form field: EC50 recorded for CCCCc1nc2c(N)nc3ccsc3c2n1Cc1ccc(CN2CCN(CCNC(=O)OC(C)(C)C)CC2)cc1 with PBMCs (enter value)
A. 65 nM

Q. Form field: EC50 recorded for CCCCc1nc2c(N)nc3ccsc3c2n1Cc1ncc(CNCC(C)(C)O)s1 with PBMCs (enter value)
A. > 1000 nM

* * *

Measured pEC50 by item
Tested on: PBMCs
ASSAY_SUMMARY: PBMC assay, IL-6 release (HTRF)
Type: cell-based
CONDITION_PARAMETERS: PBMCs from healthy donors, overnight, IL-6 induction by HTRF, average of quadruplicate
pEC50: −log10 of the molar value.

Examples with their reported pEC50 follow.
CCCCc1nc2c(N)nc3ccsc3c2n1Cc1nc(CO)cs1 [Compound 228]: < 6.00
CCCCc1nc2c(N)nc3ccsc3c2n1Cc1ccccc1CN(CC)CC [Compound 221]: < 6.00

Q. Using the record for CCCCc1nc2c(N)nc3ccsc3c2n1Cc1ccc(CNC2CCCN(C(=O)OC(C)(C)C)C2)cc1 (stereo not shown) [Compound 262] , report its pEC50.
A. < 6.00

Q. Using the record for CCCCc1nc2c(N)nc3ccsc3c2n1Cc1ccccc1CN1CCC(c2ccncc2)CC1 [Compound 219] , report its pEC50.
A. < 6.00

Q. Using the record for CCCCc1nc2c(N)nc3ccsc3c2n1Cc1cccc(CNN)c1 [Compound 206] , report its pEC50.
A. < 6.00
